src = ChEMBL document CHEMBL5518159

target: DNA gyrase (Escherichia coli, UniProt P0AES4+P0AES6); assay: Inhibition of Escherichia coli DNA gyrase assessed as reduction in enzyme-mediated supercoiling of relaxed plasmid by fluorescence polarization assay
result.type: IC50 (nM)
Give a bare numeral; the unit nM is implied.

q: For the compound shown here, `COC(=O)CC(=O)Nc1nc2c(s1)C[C@@H](NC(=O)c1[nH]c(C)c(Br)c1Cl)CC2` , give the reported IC50.
a: 56
